// IC50 lookup, one value per entry
Molecular target: T1, mouse α1β1 integrin (mouse), Q3V3R4
T1 chain 1: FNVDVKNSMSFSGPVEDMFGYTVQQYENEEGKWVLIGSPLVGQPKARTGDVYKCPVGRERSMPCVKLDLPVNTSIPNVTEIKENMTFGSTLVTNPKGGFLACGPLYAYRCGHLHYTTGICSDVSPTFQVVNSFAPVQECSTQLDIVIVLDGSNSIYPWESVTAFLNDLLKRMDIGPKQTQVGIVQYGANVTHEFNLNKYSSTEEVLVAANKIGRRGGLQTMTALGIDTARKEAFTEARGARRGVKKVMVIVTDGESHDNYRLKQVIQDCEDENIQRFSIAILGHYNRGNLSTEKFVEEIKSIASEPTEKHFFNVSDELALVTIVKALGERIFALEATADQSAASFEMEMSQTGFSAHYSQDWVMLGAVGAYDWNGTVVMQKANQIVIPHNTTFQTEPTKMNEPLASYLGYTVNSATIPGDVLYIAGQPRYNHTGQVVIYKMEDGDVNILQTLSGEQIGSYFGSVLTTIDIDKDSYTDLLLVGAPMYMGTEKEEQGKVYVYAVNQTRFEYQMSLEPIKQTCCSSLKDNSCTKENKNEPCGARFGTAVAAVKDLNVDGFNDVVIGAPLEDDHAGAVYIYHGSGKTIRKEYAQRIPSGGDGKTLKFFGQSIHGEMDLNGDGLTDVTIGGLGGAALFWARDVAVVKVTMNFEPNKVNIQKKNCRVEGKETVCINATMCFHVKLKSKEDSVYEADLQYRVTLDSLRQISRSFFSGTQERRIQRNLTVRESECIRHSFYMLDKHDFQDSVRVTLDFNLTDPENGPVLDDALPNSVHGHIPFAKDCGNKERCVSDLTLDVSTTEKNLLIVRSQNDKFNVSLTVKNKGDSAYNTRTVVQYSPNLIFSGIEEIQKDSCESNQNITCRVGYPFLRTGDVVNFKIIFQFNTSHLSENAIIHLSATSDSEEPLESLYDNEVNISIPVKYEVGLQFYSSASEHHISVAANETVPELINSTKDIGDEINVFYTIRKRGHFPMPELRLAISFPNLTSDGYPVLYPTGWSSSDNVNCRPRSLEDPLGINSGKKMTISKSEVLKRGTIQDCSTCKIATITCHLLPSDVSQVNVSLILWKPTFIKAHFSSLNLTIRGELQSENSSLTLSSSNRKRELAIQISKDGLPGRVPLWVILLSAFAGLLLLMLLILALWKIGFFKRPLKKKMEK
T1 chain 2: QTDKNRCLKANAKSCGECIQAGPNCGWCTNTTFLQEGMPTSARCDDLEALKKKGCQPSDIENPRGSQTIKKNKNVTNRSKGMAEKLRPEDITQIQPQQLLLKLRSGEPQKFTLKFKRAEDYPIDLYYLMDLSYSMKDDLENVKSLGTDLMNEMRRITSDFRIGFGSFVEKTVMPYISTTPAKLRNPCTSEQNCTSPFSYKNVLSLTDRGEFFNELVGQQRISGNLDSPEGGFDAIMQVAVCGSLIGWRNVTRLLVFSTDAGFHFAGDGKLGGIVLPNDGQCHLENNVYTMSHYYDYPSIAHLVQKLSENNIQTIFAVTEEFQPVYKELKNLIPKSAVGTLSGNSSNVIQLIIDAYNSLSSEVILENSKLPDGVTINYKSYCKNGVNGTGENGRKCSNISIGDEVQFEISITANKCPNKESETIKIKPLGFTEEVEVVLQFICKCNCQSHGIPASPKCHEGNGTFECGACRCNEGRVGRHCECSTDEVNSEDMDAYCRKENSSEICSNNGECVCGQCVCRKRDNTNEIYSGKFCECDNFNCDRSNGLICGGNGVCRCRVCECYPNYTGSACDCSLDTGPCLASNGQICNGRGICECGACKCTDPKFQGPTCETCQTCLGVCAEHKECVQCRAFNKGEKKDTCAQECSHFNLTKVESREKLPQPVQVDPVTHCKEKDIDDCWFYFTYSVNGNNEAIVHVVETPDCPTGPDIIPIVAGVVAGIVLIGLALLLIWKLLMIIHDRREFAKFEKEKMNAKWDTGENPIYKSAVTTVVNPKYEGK
Assay: inhibition of adhesion of B16F10 cells to collagen IV
Endpoint label: IC50 (nM)

>>> assay_value("CTTGPCCRQCKLKPAGTTCWKTSRTSHYCTGKSCDCPVYQG (modifications not checked) [viperisrastatin]")
0.25
>>> assay_value("CTTGPCCRQCKLKPAGTTCWKTSLTSHYCTGKSCDCPLYPG (modifications not checked) [obtustatin]")
0.2
